Observed Property: melting point

Compound	Observed Property	Test Result
CC1C(=O)NC(c2ccc(NC(=O)CCl)cc2)c2ccccc21 (stereo unspecified)	melting point	238 to 239 °C
CCOC(=O)CC/C=C(\C)c1sccc1Br	melting point	62 to 64 °C
O=C1CN=C2C(=O)CC=CC2=N1	melting point	208 to 211 °C
CCOC(=O)CCCCCN1C(=O)c2cccc3cc(N)cc(c23)C1=O	melting point	108 to 110 °C
Cc1c(-c2cnc(N(C)C)nc2)ssc1=S	melting point	135 °C
CC1(C)CCSc2c(CC#Cc3ccc(C=O)cc3)cccc21	melting point	55 to 63 °C
Cc1cc(C)cc(COC[C@@H](NC(=O)OC(C)(C)C)c2ccccc2)c1	melting point	46 to 49 °C
COc1ccc(OC)c2[nH]c(-c3ccccc3)nc12	melting point	226 to 227 °C
COc1cc(CO)ccc1C12CC3CC(CC(C3)C1)C2	melting point	120 to 121 °C
O=C1c2ccccc2CN1c1ccc(OCCN2CCN(c3nsc4ccccc34)CC2)cc1	melting point	166 to 167 °C
ClC(Cl)=CCOc1cc(Cl)c(OCc2ccncc2)c(Cl)c1	melting point	74 °C
Cc1cnn2c(-c3cccc(-c4ccccc4C#N)c3)cnc2n1	melting point	211 to 216 °C
O=C1NC(=O)c2c(Cl)cccc21	melting point	236 to 238 °C
CCCCCNC(=O)N(C)c1cccc(-c2ccc(C=C(OC)C(=O)O)cc2OCCOCC)c1	melting point	78.2 °C
CC(C)CC(CO)NC(=O)OCC1c2ccccc2-c2ccccc21 (stereo unspecified)	melting point	131 to 133 °C
COC(=O)COc1ccc(SCc2cc(-c3ccc(Cl)cc3)no2)c2c1CCC2	melting point	92 to 94 °C
Nc1ccc(C#Cc2ccccc2)c(-c2cc(N)ccc2C#Cc2ccccc2)c1	melting point	159 to 161 °C
COC(=O)C1=C(C)NC(O)=C(C(=O)OC)C1c1cccc([N+](=O)[O-])c1 (stereo unspecified)	melting point	150 to 152 °C
CCN1CCN(c2ccc(Nc3cc(-c4cnc5cc[nH]c5c4)cn4ccnc34)nc2)CC1	melting point	227 to 230 °C
CC(C)c1cccc(C(C)C)c1NC(=O)CNC(c1ccccc1)c1ccccn1 (stereo unspecified)	melting point	135 to 136 °C
Nc1c(Cl)cc(C(O)CNCCCCCC(=O)OCCc2cccc3ccccc23)cc1Cl (stereo unspecified)	melting point	60 to 61 °C
